Provenance of the data: paper PMC10906247

Task for the reader: assign each of the following compounds its reported GPR120 max. efficacy.
Molecular target: GPR120 (Homo sapiens, UniProt Q5NUL3)
Sequence (Q5NUL3 1-361): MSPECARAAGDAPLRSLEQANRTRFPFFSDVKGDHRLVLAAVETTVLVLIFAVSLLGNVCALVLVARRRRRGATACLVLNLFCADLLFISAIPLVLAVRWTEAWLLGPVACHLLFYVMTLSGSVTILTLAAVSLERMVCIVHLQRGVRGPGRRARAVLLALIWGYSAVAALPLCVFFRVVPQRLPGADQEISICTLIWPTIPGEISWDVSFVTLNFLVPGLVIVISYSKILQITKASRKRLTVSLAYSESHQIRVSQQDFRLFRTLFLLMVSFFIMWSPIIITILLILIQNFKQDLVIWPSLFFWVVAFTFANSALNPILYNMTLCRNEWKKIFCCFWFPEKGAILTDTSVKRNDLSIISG
Test: PathHunter β-arrestin assay (Eurofins Discovery), GPR120
Type: cell-based
Conditions: maximal efficacy measured at 100 μM; oleic acid = 100
Value and unit, in that order.

May I ask what GPR120 max. efficacy has been recorded for CCCCCCCCC[C@H](C)/C=C(/C)C/C(C)=C/[C@H](C)CC(=O)O ? 32%

// repeat for CCCCCCCCC[C@H](C)/C=C(/C)C/C(C)=C/[C@@H](C)CC(=O)O and report 31%

// repeat for CCCCCCC[C@@H](C)/C=C(/C)C/C(C)=C/[C@@H](C)CCCC(=O)O and report 44%

// repeat for CCCCCCCCC[C@@H](C)/C=C(/C)C/C(C)=C/[C@H](C)CC(=O)O and report 29%

---

Molecular target: UniProt:Q5NUL3
Sequence (Q5NUL3 1-361): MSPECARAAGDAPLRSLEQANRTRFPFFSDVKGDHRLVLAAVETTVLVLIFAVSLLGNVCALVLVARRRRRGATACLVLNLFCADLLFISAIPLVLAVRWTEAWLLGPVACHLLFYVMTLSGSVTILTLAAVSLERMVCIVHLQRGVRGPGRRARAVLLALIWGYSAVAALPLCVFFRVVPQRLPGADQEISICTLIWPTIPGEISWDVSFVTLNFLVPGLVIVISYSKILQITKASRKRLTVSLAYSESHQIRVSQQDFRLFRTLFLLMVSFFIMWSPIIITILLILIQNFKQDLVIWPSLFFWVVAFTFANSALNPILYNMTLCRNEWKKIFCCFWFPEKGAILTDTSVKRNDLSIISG
Test: PathHunter β-arrestin assay (Eurofins Discovery), GPR120
Format: cell-based
Conditions: dose-response; oleic acid = 100
Parameter measured: GPR120 max. efficacy (%)
Output spec: scalar in %, unitless text.

May I ask what GPR120 max. efficacy has been recorded for CCCCCCC[C@@H](C)/C=C(/C)C/C(C)=C/[C@H](C)CCCC(=O)O [2-C] ? 31

// repeat for O=C(O)CCc1ccc(NCc2cccc(Oc3ccccc3)c2)cc1 [GW9508, reference compound] and report 87

// repeat for CCCCCCC[C@H](C)/C=C(/C)C/C(C)=C/[C@H](C)CCCC(=O)O [2-E] and report 35

// repeat for CCCCCCCC/C=C\CCCCCCCC(=O)O [oleic acid, reference compound] and report 100

---

Molecular target: TLX ligand binding domain (Homo sapiens, UniProt Q9Y466)
Construct: purchased NovAliX SAS, Strasbourg, France
Sequence (Q9Y466 155-383 limits assumed): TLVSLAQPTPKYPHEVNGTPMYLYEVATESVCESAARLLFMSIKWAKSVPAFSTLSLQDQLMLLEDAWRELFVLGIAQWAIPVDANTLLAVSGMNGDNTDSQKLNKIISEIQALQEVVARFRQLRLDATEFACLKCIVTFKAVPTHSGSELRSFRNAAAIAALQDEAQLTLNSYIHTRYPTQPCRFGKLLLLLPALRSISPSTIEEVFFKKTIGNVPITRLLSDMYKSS
Assay: TLX ligand sensing assay (AlphaScreen, RIP140 NR box peptide recruitment)
Assay type: biochemical
Details: ALPHA normalized; supplement; read-out: TLX EC50 (dose-response curves)
Task for the reader: assign each of the following molecules its reported EC50.
Output spec: scalar in µM, unitless text.

May I ask what EC50 has been recorded for CCCCCC/C=C(/C)C/C(C)=C/[C@@H](C)CCCCCC(=O)O [3-B] ? 0.934

// repeat for CCCCCCCCC[C@@H](C)/C=C(/C)C/C(C)=C/[C@@H](C)CC(=O)O [1-D] and report 3.17

// repeat for CCCCCCCCC[C@@H](C)/C=C(/C)C/C(C)=C/[C@H](C)CC(=O)O [1-C] and report 3.12

// repeat for CCCCCCC[C@H](C)/C=C(/C)C/C(C)=C/[C@H](C)CCCC(=O)O [2-E] and report 1.31

// repeat for CCC[C@@H](C)/C=C(/C)C/C(C)=C/[C@H](C)CCCCCCCC(=O)O [4-C] and report 1.53

// repeat for CCCC/C=C(/C)C/C(C)=C/[C@H](C)CCCCCCCC(=O)O [4-A] and report 1.52

// repeat for CCCCCC/C=C(/C)C/C(C)=C/[C@H](C)CCCCCC(=O)O [3-A] and report 1.56

// repeat for CCCCCCCCCC/C=C(/C)C/C(C)=C/[C@@H](C)CC(=O)O [1-B] and report 2.36

// repeat for CCCCCCC[C@H](C)/C=C(/C)C/C(C)=C/[C@@H](C)CCCC(=O)O [2-F] and report 1.56

// repeat for CCCCCCCC/C=C(/C)C/C(C)=C/[C@@H](C)CCCC(=O)O [2-B] and report 3.08

// repeat for CCCCCCCCC[C@H](C)/C=C(/C)C/C(C)=C/[C@@H](C)CC(=O)O [1-F] and report 1.87

// repeat for CCCC/C=C(/C)C/C(C)=C/[C@@H](C)CCCCCCCC(=O)O [4-B] and report 2.97

// repeat for CCCCCCCC/C=C\CCCCCCCC(=O)O [oleic acid, reference compound] and report 3.55

// repeat for CCCCCCCCC[C@H](C)/C=C(/C)C/C(C)=C/[C@H](C)CC(=O)O [1-E] and report 1.68

// repeat for CCC[C@@H](C)/C=C(/C)C/C(C)=C/[C@@H](C)CCCCCCCC(=O)O [4-D] and report 1.57

// repeat for CCCCCCCCCC/C=C(/C)C/C(C)=C/[C@H](C)CC(=O)O [1-A] and report 2.18

// repeat for CCCCC[C@H](C)/C=C(/C)C/C(C)=C/[C@H](C)CCCCCC(=O)O [3-E] and report 0.959

// repeat for CCC[C@H](C)/C=C(/C)C/C(C)=C/[C@@H](C)CCCCCCCC(=O)O [4-F] and report 1.89

// repeat for CCCCCCC[C@@H](C)/C=C(/C)C/C(C)=C/[C@@H](C)CCCC(=O)O [2-D] and report 1.32

// repeat for CCCCCCCC/C=C(/C)C/C(C)=C/[C@H](C)CCCC(=O)O [2-A] and report 2.51
